Target: Cbl-b (Homo sapiens (Human), UniProt Q13191)
Sequence (Q13191 40-426): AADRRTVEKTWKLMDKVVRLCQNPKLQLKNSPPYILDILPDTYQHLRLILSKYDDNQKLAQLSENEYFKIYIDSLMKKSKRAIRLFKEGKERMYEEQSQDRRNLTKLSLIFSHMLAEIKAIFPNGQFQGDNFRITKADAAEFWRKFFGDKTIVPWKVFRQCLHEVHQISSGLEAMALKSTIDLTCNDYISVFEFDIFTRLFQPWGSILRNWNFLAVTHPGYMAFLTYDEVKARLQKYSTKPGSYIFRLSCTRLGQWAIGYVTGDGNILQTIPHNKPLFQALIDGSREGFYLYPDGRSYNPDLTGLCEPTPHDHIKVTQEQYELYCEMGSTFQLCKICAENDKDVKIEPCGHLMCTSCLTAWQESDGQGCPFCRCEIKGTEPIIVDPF
Experiment: Cbl-b LCK Ub TR-FRET assay (Cbl-b Lck HTRF)
Assay type: biochemical
Conditions: Cbl-b LCK Ub TR-FRET
Assignment: determine reported IC50 for the given molecules.
Give bare numbers, in µM.

Reference set (2 entries):
Cn1cnnc1[C@@H](c1cccc(N2Cc3c(Cl)cc(CNC4(C)CCC4)cc3C2=O)c1)[C@H]1C[C@H](F)C1 (single isomer, unassigned) [Compound 318]; 0.28
Cn1cnnc1[C@]1(c2cccc(N3Cc4c(cc(CNC5(C)CCC5)cc4C(F)(F)F)C3=O)c2)C[C@H](OC(F)(F)F)C1 [Compound 350]; 0.016

Turning now to a further molecule:
**Query** So what's the measured IC50 for this one? Cn1cnnc1[C@]1(c2cccc(N3Cc4c(cc(CNC5(C)CCC5)cc4C(F)(F)F)C3=O)c2)C[C@@H](CO)C1.O=CO [Compound 100]
**Result** 0.025

###

Target: Cbl-b (Homo sapiens (Human), UniProt Q13191)
Test: Cbl-b LCK Ub TR-FRET assay (Cbl-b Lck HTRF)
Type: biochemical
Settings: ratio C-cbl Lck HTRF IC50 / Cbl-b Lck HTRF IC50
Kindly return Fulfilled if reported fold-selectivity (Cbl-b over C-cbl) is no lower than 2 x; return Not fulfilled if it is lower.

Cn1cnnc1C1(c2cccc(N3Cc4c(cc(CNC5(C)CCC5)cc4C(F)(F)F)C3=O)c2)CC1; Fulfilled
CO[C@H]1C[C@@](O)(C(c2cccc(N3Cc4c(cc(CNC5(C)CCC5)cc4C(F)(F)F)C3=O)c2)c2nncn2C)C1 (single isomer, unassigned); Fulfilled
Cn1cnnc1C(c1cccc(N2Cc3c(cc(CNC4(C)CCC4)cc3C(F)(F)F)C2=O)c1)[C@H]1C[C@@H](Cl)C1 (single isomer, unassigned) [Compound 357]; Not fulfilled
Cn1cnnc1[C@H](c1cccc(N2Cc3c(cc(CNC4(C)CCC4)cc3C(F)(F)F)C2=O)c1)C1CCCCC1 (single isomer, unassigned); Not fulfilled
Cn1cnnc1[C@]1(c2cccc(N3Cc4c(cc(CNC5(C)CCC5)cc4C(F)(F)F)C3=O)c2)C[C@H](S(C)(=O)=O)C1; Not fulfilled

**Query** Determine whether measured fold-selectivity (Cbl-b over C-cbl) meets or exceeds 2 x for CCOc1cc(N2Cc3c(cc(CNC4(C)CCC4)cc3C(F)(F)F)C2=O)cc([C@]2(c3nncn3C)C[C@H](C)C2)c1
**Result** Not fulfilled

**Query** For this compound, is measured fold-selectivity (Cbl-b over C-cbl) 2 x or higher? Cn1cnnc1[C@H](C[C@@H]1COCCO1)c1cccc(N2Cc3c(cc(CNC4(C)CCC4)cc3C(F)(F)F)C2=O)c1
**Result** Not fulfilled

**Query** Could you tell me if the measured fold-selectivity (Cbl-b over C-cbl) of Cn1cnnc1[C@H](c1cccc(N2Cc3c(cc(CNC4(C)CCC4)cc3C(F)(F)F)C2=O)c1)C1CC2(COC2)C1 reaches 2 x or more?
**Result** Not fulfilled

**Query** Please indicate if the recorded fold-selectivity (Cbl-b over C-cbl) for Cn1cnnc1[C@H](c1cccc(N2Cc3c(cc(CNC4(C)CCC4)cc3C(F)(F)F)C2=O)c1)C1COC1 (single isomer, unassigned) meets or exceeds 2 x.
**Result** Fulfilled

Where do the numbers come from? From patent US12187709B2.
